# procedure-summary: yeast display, Sf9 membrane polyspecificity reagent, FACS + sequencing; frameworks hold sequencing errors

input-sequence | polyreactivity (PSR sort gate)
QVQLVESGGGLVQAGGTLRLSCAASGSMFDGNAMGWYRQAPGKERELVAAISRRGGSTYYADSVKGRFTISRDNAKNTVYLQKNSLKPEDTAVYYCNAYLSYFDGNYWGEGTQVTVSS | high polyreactivity
QVQLVESGGGLVQAGGSLRLSCAASGSIFRYYAMGWYRQAPGKERELVAVISSGGTRTNYADSVKGRFTISRDTAKNTVYLQMNSLKPEDTAVYYCAAGYLSLYGGGYWGQGTQVTVSS | high polyreactivity
QVQLVESGGGLVQAGGSLRLSCAASGSTLYWNAMGWYRQAPGKERELVADISSTGRTYYADSVKGRFTISRDNAKNTVYLQMNSLKPEDTAVYYCNADYFFEFDYWGQGTQVTVSS | low polyreactivity
QVQLVESGGGLVQAGGSLRLSCAASVSIFIANVMGWYRQAPGKERELVAAITRTSSTYYADSVKGRFTISRDNAKNTVYLQMNSLKPEDTAVYYCAKLYGVVGRWYRSSYGYWGQGTQVTVSS | high polyreactivity
QVQLVESDGGLDQAGRSLRLSFAASGTIFDPYSMGWYRQEPGKERELVAAISWSDSSTYYADSVKGRFTISRDNAKNTVYLQKNSLKPEDTAVYYCASDYDLYFYLYEYWGQGTQVTVSS | high polyreactivity
QVQLVESGGGLVQAGGSLRVSCAASGSIFYSNAMGWYRQAPGKERELVAAITRRGGSTYYADSVKGRFTISRDIATNPVYLQMNSLIPEDTAVYYCAARSKTSNLFNYWGQGTQVTVSS | high polyreactivity
QVQLVESGGGLVQAGGSLRLSCAASGRTFSTNAMGWYRQAPGKERELVAAITSRGGSTYYADSVKGRFTISRDNAKNTVYLQMNSLKPEDPAVYYCAVDPLYYKTHYGTLGYYYLGQGTQVTVSS | low polyreactivity
QVQLVESGGGFVQAGGSLRLSCASSGRIFRGYTMGWYRQAPGKEREFVAAIRRSGGTTYYADSVKRRFTISRDNAKNTVYLQMNSLKPEDTAVYYCAAGYPGFTYQRRKYDYWGQGTQVTVSS | high polyreactivity
QVQLVESGGGLVQAGGSLRLSCAASGSTLYPYDMGWYRQAPGKERELVAAIDSGGSTNYADSVKGRFTISRDNAKNTVYLQMNSLKPEDTAVYYCAADASGENDYWGQGTQVTVSS | low polyreactivity
QVQLVESGGGLVQAGGSLRLSCAASVSTFFRYAKRWYRQAPGKERELVAAISKRGGSTSYADSVKGRFTISRDNAKNTVYLQMNSLKPEDTAVYYCATVYWLFARYDYWGQGTQVTVSS | high polyreactivity
QVQLVESGGGLVQAGGSLRLSCAASGSIFDNYAMGWYRQAPGKEREFVAGISWSGGSTRYADSVKGRFTISRDNAKNTVYLQMNSLKPEDTAVYYCNTGYGLVDFLYGYYYWGQGTQVTVSS | low polyreactivity
QVQLVESGGGLVQAGGSLRLSCAASGSIFNYNTMGWYRQAPGKERELVADISWSGGSTYYADSVKGRFTISRDNAKNTVYLQMNSLKPEDTAVYYCAADFGLFPYVGTGYYFWGQGTQVTVSS | low polyreactivity
QVQLVESGGGLVQAGGSLRLSCAASGSIFPANAMGWYRQAPGKERELVAAISGRGGRTYYADSVKGRFTISRDNAKNTVYLQMNSLKPEDTAVYYCNKVGPLVGGVKYYYWGQGTQVTVSS | high polyreactivity
QVQLVESGGGLVQAGGSLRLSCAASGSTFIFYTMGWYRQAPGKERELVAAITSNGGSTYYADSVKGRFTISRDNAKNTVYLQMNSLKPEDTAVYYCARVDRWRRYRYIFSGYDYWGQGTQVTVSS | high polyreactivity
QVQLVESGGGLVQAGGSLRLSCAASGSSKLMLWDGIDRRLGKKGSWLPLFVLVVLRNYSDSVKGRFTISRDNAKNTVYLQMNSLKPEDTAVYYCAATPIGSGGWGDYWGQGTQVTVSS | low polyreactivity
QVQLVESGGGLVQAGGSLRLSCAASGLIFGWYAMGWYRQAPGKERELVAAITRSGGSTYYADSVKGRFTISRDNAKNTVYLQMNSLKPEDTAVYYCAARSYVPSYDYWGQGTQVTVSS | high polyreactivity
QVQLVESGGGLLQAGGSLRLSCAASGRIGRYAMGCYRQAPGKERQLVAVITSGDSTYYADSVKGRFTISRDNAKNTVYLQMNSLKPEESPVESCAADSYRRWGNLFTGNEYDSWGQGTQVTVSS | low polyreactivity
QVQLVESGGGLVQAGGSLRLSCAASGSILYYAMGWYRQAPGKERELVATITRGGSTYYADSVKGRFTISRDNAKNTVYLQMNSLKPDDTAVYYCAARRAVRVGYYWHDISSYDYWGQGTQVTVPS | low polyreactivity
QVQLVESGGGLVQAGGSLRLSSAASGNNFHFYAMGSYRQAPGKERELVATISWRGDGTYYADSVKGRFTISRDNAKNTVYLQMNSLKPEDTAVYYCAGRGVWPEYDYWGQGTQVNVSS | low polyreactivity
QVQLVESGGGLVQAGGSLRLSCAASGSIFASYAMGWYRQAPGKERELVAAISDGGGRTYYADSVKGRFTISRDNAKNTVYLQMNSLKPEDTAVYYCAAYAVYTYRRARGYWGQGTQVTVSS | high polyreactivity
QVQLVESGGGLVQAGGSLRLSCAASGLTYSNAMGWYRQAPVKERELVAAISWRGGRTYYADSVKGRFTISRDNAKNTVYLQMNSLKPEDTAVYYCAKYAHGHKWYGYWGQGTQVTVSS | low polyreactivity

Reference source: the nanobody polyreactivity screen of Harvey et al. (2022)
